measurementTarget: Cytochrome P450 2C19 (Homo sapiens) (UniProt P33261)
Sequence (P33261 whole entry, looked up): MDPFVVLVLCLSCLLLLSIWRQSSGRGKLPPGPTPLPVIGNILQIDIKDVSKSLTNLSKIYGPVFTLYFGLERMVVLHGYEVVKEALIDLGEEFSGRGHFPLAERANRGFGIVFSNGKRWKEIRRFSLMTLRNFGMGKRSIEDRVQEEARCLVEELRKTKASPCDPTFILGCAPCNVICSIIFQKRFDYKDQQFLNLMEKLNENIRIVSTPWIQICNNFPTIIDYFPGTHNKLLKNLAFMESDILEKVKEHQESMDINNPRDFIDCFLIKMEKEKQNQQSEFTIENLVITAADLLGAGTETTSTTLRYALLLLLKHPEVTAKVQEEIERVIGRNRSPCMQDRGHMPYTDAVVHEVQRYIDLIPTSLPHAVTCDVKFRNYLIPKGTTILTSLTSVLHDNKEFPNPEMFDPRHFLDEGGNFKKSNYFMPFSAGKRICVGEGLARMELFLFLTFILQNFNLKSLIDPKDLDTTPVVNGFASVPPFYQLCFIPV
procedureText: Cytochrome P450 Family 2 Subfamily C Member 19 (CYP2C19) small molecule antagonists: luciferase reporter qHTS assay (AID 1671197); also: nearly all actives have a fitted effect of over 65% in size; also: potency is read from the fitted curve at half-maximal effect
conditionSummary: P450-Glo CYP2C19 enzyme, luciferin luminescence, 1 h; series mostly up to 115 µM
Results filed as inconclusive are left out. Calls of active or inactive are those of the source. Calls follow the shape of the dose curve; as a rule, active = well fitted inhibition curve with a large enough effect in the repeat runs; inconclusive = weak or mixed curves; inactive = no such curve, though single readings can be large or run the other way.
reportedEndpoint: Potency

| molecule | Potency |
| --- | --- |
| CC(C)(c1ccc(O)c(-c2ccccc2)c1)c1ccc(O)c(-c2ccccc2)c1 | 17.8 µM (active) |
| ClC1=C(Cl)[C@]2(Cl)[C@@H]3[C@@H](Cl)[C@H](Cl)C[C@@H]3[C@@]1(Cl)C2(Cl)Cl | inactive |
| N#CCCC(Br)(C#N)CBr (configuration not stated) | 11.2 µM (active) |
| C1CCC2CCCCC2C1 (configuration not stated) | inactive |
| C[C@]12Cc3nonc3C[C@@H]1CC[C@@H]1[C@@H]2CC[C@@]2(C)[C@H]1CC[C@]2(C)O | 17.4 µM (active) |

For each of the molecules below, note its Potency.
1. N#CNC#N
2. COc1ccc(/C(=C/C(=O)N2CCOCC2)c2ccc(Cl)cc2)cc1OC
3. CC[C@H](C)[C@H]1O[C@]2(C=C[C@@H]1C)C[C@@H]1C[C@@H](C/C=C(\C)[C@@H](O[C@H]3C[C@H](OC)[C@@H](O[C@H]4C[C@H](OC)[C@@H](O)[C@H](C)O4)[C@H](C)O3)[C@@H](C)/C=C/C=C3\CO[C@@H]4[C@H](O)C(C)=C[C@@H](C(=O)O1)[C@]34O)O2
4. ClC1=C(Cl)[C@]2(Cl)[C@@H]3[C@@H]4C[C@@H]([C@H]5O[C@@H]45)[C@@H]3[C@@]1(Cl)C2(Cl)Cl
5. CC(=O)c1ccc(-c2ccccc2)cc1
6. N#Cc1c(-c2ccc(Cl)cc2)[nH]c(C(F)(F)F)c1Br
7. C[C@@H]1CC[C@@]2(OC1)O[C@H]1[C@@H](O)[C@H]3[C@@H]4CC[C@H]5C[C@@H](O[C@@H]6O[C@H](CO)[C@H](O[C@@H]7O[C@H](CO)[C@@H](O)[C@H](O[C@@H]8OC[C@@H](O)[C@H](O)[C@H]8O)[C@H]7O[C@@H]7O[C@H](CO)[C@@H](O)[C@H](O[C@@H]8O[C@H](CO)[C@@H](O)[C@H](O)[C@H]8O)[C@H]7O)[C@H](O)[C@H]6O)[C@H](O)C[C@]5(C)[C@H]4CC[C@]3(C)[C@H]1[C@@H]2C

Outgoing:
1. inactive
2. 56.4 µM (active)
3. 21 µM (active)
4. 3.17 µM (active)
5. 31.7 µM (active)
6. 39.9 µM (active)
7. inactive

Dear colleague, could you send me Potency for each of the items below? Thanks.
1. Oc1c(Cl)c(Cl)cc(Cl)c1Cl
2. NC(=O)CCl
3. Cc1c(Cl)c(=O)oc2cc(OP(=O)(OCCCl)OCCCl)ccc12
4. CC(=O)O[C@H]1CC[C@@]2(C)C(=CC[C@@H]3[C@@H]2CC[C@]2(C)C(=O)CC[C@@H]32)C1
5. CC(C)(C)c1ccc(CSc2cnn(C(C)(C)C)c(=O)c2Cl)cc1

Outgoing:
["inactive", "inactive", "2.19 µM (active)", "31.7 µM (active)", "7.96 µM (active)"]
